molecular target: UBE2E3; experiment: reporter assay of Huesken 2005; settings: siRNA; note: test concentration or dose not given here
Oligonucleotides are written 5' to 3', each unit as a sugar letter and its base; * is a phosphorothioate linkage, no mark a phosphodiester; rarer units and linkages stand in square brackets, end groups in braces. Plain capitals give the bases only. d = 2'-deoxy (DNA); r = 2'-OH (RNA)
metric.name: normalised inhibition (eCFP-eYFP dual reporter) (%)
Express the result in % but write the number alone.

Param request: normalised inhibition (eCFP-eYFP dual reporter) | system UBE2E3 | item sense rArGrCrCrUrGrArArGrArArCrArArGrArGrGrAdTdT / antisense rUrCrCrUrCrUrUrGrUrUrCrUrUrCrArGrGrCrUdCdT; note: test concentration or dose not given here
89

Please report the measured normalised inhibition (eCFP-eYFP dual reporter) for sense rUrGrArArUrGrGrArGrArUrCrArArCrUrArUrAdTdT / antisense rUrArUrArGrUrUrGrArUrCrUrCrCrArUrUrCrAdTdA tested on UBE2E3. Note: test concentration or dose not given here.
90.5

For UBE2E3, give normalised inhibition (eCFP-eYFP dual reporter) of the listed substance: sense rGrGrArGrUrCrArUrCrUrGrUrCrUrGrGrArCrAdTdT / antisense rUrGrUrCrCrArGrArCrArGrArUrGrArCrUrCrCdCdT
75.6

Report value: normalised inhibition (eCFP-eYFP dual reporter), system: UBE2E3, substance: sense rUrGrUrCrUrArUrUrUrGrUrUrCrCrCrUrUrUrUdTdT / antisense rArArArArGrGrGrArArCrArArArUrArGrArCrAdGdC; note: test concentration or dose not given here
86

Lab note: UBE2E3 assay, enter normalised inhibition (eCFP-eYFP dual reporter) for sense rCrUrCrCrUrArArUrUrGrCrArGrUrGrCrUrGrGdTdT / antisense rCrCrArGrCrArCrUrGrCrArArUrUrArGrGrArGdGdA here
51.1

For UBE2E3, give the measured normalised inhibition (eCFP-eYFP dual reporter) of the entry sense rUrCrArGrArUrUrArUrCrCrArUrUrUrArArGrCdTdT / antisense rGrCrUrUrArArArUrGrGrArUrArArUrCrUrGrAdTdG
38.2

Quote normalised inhibition (eCFP-eYFP dual reporter) with test system UBE2E3 for sense rUrCrUrGrGrArUrArUrCrArCrArUrUrUrUrCrAdTdT / antisense rUrGrArArArArUrGrUrGrArUrArUrCrCrArGrAdAdA; note: test concentration or dose not given here
68.8
